Recorded Viability Fold Change by entry
# System: HT29 RAMS11 overexpressing cells
# EXPERIMENT DESCRIPTION: High-throughput viability assay (resazurin), 119 FDA-approved anticancer drugs, RAMS11 overexpressing cells (Clone1, Clone2)
# RUN CONDITIONS: OE2 (RAMS11 overexpression clone 2), 10 uM drug, 72 h, vs empty vector control
Where a name gives a salt, the structure may show the parent alone.
OBSERVATION TYPE: Viability Fold Change

MOLECULE: Nc1nc2nc[nH]c2c(=S)[nH]1 [Thioguanine]
MEASURED TARGET: HT29 RAMS11 overexpressing cells
RECORDED VALUE: 1.01
--
MOLECULE: Nc1ccn([C@@H]2O[C@H](CO)[C@@H](O)C2(F)F)c(=O)n1 [gemcitabine, reference compound]
MEASURED TARGET: HT29 RAMS11 overexpressing cells
RECORDED VALUE: 2.499
--
MOLECULE: CS(=O)(=O)CCNCc1ccc(-c2ccc3ncnc(Nc4ccc(OCc5cccc(F)c5)c(Cl)c4)c3c2)o1 [Lapatinib]
MEASURED TARGET: HT29 RAMS11 overexpressing cells
RECORDED VALUE: 1.391
--
MOLECULE: CC1=C(/C=C/C(C)=C/C=C/C(C)=C/C(=O)O)C(C)(C)CCC1 [Tretinoin]
MEASURED TARGET: HT29 RAMS11 overexpressing cells
RECORDED VALUE: 1.336
--
MOLECULE: S=c1nc[nH]c2nc[nH]c12 [Mercaptopurine]
MEASURED TARGET: HT29 RAMS11 overexpressing cells
RECORDED VALUE: 1.05
--
MOLECULE: CC(C)(C#N)c1cc(Cn2cncn2)cc(C(C)(C)C#N)c1 [Anastrozole]
MEASURED TARGET: HT29 RAMS11 overexpressing cells
RECORDED VALUE: 0.9255
--
MOLECULE: c1cc(CN2CCCNCCNCCCNCC2)ccc1CN1CCCNCCNCCCNCC1 [Plerixafor]
MEASURED TARGET: HT29 RAMS11 overexpressing cells
RECORDED VALUE: 1.062
--
MOLECULE: C/C(=C\c1csc(C)n1)[C@@H]1C[C@@H]2O[C@]2(C)CCC[C@H](C)[C@H](O)[C@@H](C)C(=O)C(C)(C)[C@@H](O)CC(=O)N1 [Ixabepilone]
MEASURED TARGET: HT29 RAMS11 overexpressing cells
RECORDED VALUE: 2.056
--
MOLECULE: COc1cccc2c1C(=O)c1c(O)c3c(c(O)c1C2=O)C[C@@](O)(C(C)=O)C[C@@H]3O[C@H]1C[C@H](N)[C@H](O)[C@H](C)O1 [daunorubicin HCl, reference compound]
MEASURED TARGET: HT29 RAMS11 overexpressing cells
RECORDED VALUE: 3.726
--
MOLECULE: CN(Cc1cnc2nc(N)nc(N)c2n1)c1ccc(C(=O)N[C@@H](CCC(=O)O)C(=O)O)cc1 [Methotrexate]
MEASURED TARGET: HT29 RAMS11 overexpressing cells
RECORDED VALUE: 1.137
--
MOLECULE: CO[C@H]1C[C@@H]2CC[C@@H](C)[C@@](O)(O2)C(=O)C(=O)N2CCCC[C@H]2C(=O)O[C@H]([C@H](C)C[C@@H]2CC[C@@H](OCCO)[C@H](OC)C2)CC(=O)[C@H](C)/C=C(\C)[C@@H](O)[C@@H](OC)C(=O)[C@H](C)C[C@H](C)/C=C/C=C/C=C/1C [Everolimus]
MEASURED TARGET: HT29 RAMS11 overexpressing cells
RECORDED VALUE: 0.721
--
MOLECULE: CO[C@H]1C(=O)[C@]2(C)[C@@H](OC)C[C@H]3OC[C@@]3(OC(C)=O)[C@H]2[C@H](OC(=O)c2ccccc2)[C@]2(O)C[C@H](OC(=O)[C@H](O)[C@@H](NC(=O)OC(C)(C)C)c3ccccc3)C(C)=C1C2(C)C [Cabazitaxel]
MEASURED TARGET: HT29 RAMS11 overexpressing cells
RECORDED VALUE: 2.506
--
MOLECULE: C/C=C1\NC(=O)[C@H]2CSSCC/C=C/[C@H](CC(=O)N[C@H](C(C)C)C(=O)N2)OC(=O)[C@H](C(C)C)NC1=O [Romidepsin]
MEASURED TARGET: HT29 RAMS11 overexpressing cells
RECORDED VALUE: 4.697
--
MOLECULE: Nc1cccc2c1C(=O)N(C1CCC(=O)NC1=O)C2=O (stereo not shown) [Pomalidomide]
MEASURED TARGET: HT29 RAMS11 overexpressing cells
RECORDED VALUE: 0.933
--
MOLECULE: CN(C)/N=N/c1[nH]cnc1C(N)=O [Dacarbazine]
MEASURED TARGET: HT29 RAMS11 overexpressing cells
RECORDED VALUE: 0.9794
--
MOLECULE: O=C(c1cc(Cc2n[nH]c(=O)c3ccccc23)ccc1F)N1CCN(C(=O)C2CC2)CC1 [Olaparib]
MEASURED TARGET: HT29 RAMS11 overexpressing cells
RECORDED VALUE: 0.9733
--
MOLECULE: O=P1(NCCCl)OCCCN1CCCl (stereo not shown) [Ifosfamide]
MEASURED TARGET: HT29 RAMS11 overexpressing cells
RECORDED VALUE: 1.058
--
MOLECULE: Cc1ccc(Nc2nccc(N(C)c3ccc4c(C)n(C)nc4c3)n2)cc1S(N)(=O)=O [Pazopanib hydrochloride]
MEASURED TARGET: HT29 RAMS11 overexpressing cells
RECORDED VALUE: 0.9152
--
MOLECULE: Oc1ncnc2[nH]ncc12 [Allopurinol]
MEASURED TARGET: HT29 RAMS11 overexpressing cells
RECORDED VALUE: 0.8648
--
MOLECULE: CS(=O)(=O)c1ccc(C(=O)Nc2ccc(Cl)c(-c3ccccn3)c2)c(Cl)c1 [Vismodegib]
MEASURED TARGET: HT29 RAMS11 overexpressing cells
RECORDED VALUE: 0.8976
--
MOLECULE: CC(=O)Nc1cccc(-n2c(=O)n(C3CC3)c(=O)c3c(Nc4ccc(I)cc4F)n(C)c(=O)c(C)c32)c1 [Trametinib]
MEASURED TARGET: HT29 RAMS11 overexpressing cells
RECORDED VALUE: 1.886
--
MOLECULE: O=C1c2c(O)ccc(O)c2C(=O)c2c(NCCNCCO)ccc(NCCNCCO)c21 [Mitoxantrone]
MEASURED TARGET: HT29 RAMS11 overexpressing cells
RECORDED VALUE: 1.508
--
MOLECULE: CCCCCOC(=O)Nc1nc(=O)n([C@@H]2O[C@H](C)[C@@H](O)[C@H]2O)cc1F [Capecitabine]
MEASURED TARGET: HT29 RAMS11 overexpressing cells
RECORDED VALUE: 1.166
--
MOLECULE: Nc1nc2[nH]cc(CCc3ccc(C(=O)N[C@@H](CCC(=O)O)C(=O)O)cc3)c2c(=O)[nH]1 [Pemetrexed disodium salt]
MEASURED TARGET: HT29 RAMS11 overexpressing cells
RECORDED VALUE: 1.933
--
MOLECULE: CC(=O)[C@]1(O)Cc2c(O)c3c(c(O)c2[C@@H](O[C@H]2C[C@H](N)[C@H](O)[C@H](C)O2)C1)C(=O)c1ccccc1C3=O [Idarubicin hydrochloride]
MEASURED TARGET: HT29 RAMS11 overexpressing cells
RECORDED VALUE: 3.696

Source of measurements: patent US12024707B2
